Measured values drawn from BindingDB's records for doi:10.1021/jm0609622 for this set.

- Experiment Summary: Inhibition of CXCL1-induced human neutrophil chemotaxis
Observed Property: IC50

| Smiles Data | Observed |
| --- | --- |
| Cc1ccc([C@@H](C)Nc2c(Nc3cccc(C(=O)N(C)C)c3O)c(=O)c2=O)o1 | 2.4 nM |
| CC[C@@H](Nc1c(Nc2cccc(C(=O)N(C)C)c2O)c(=O)c1=O)c1ccccc1 | 48 nM |
